system: NCI-H226 lung; assay: NCI tumour cell line growth inhibition, 48 h
Each item that follows carries a reported TGI.
Reported Metric: TGI

* Nc1ccc(/C=C/c2ccc3cccnc3c2)cc1 | > 100 µM
* CCn1ncc2c(=O)n3ncn(-c4ccc(Br)cc4)c3nc21 | > 100 µM
* C=C1C[C@@H]2C[C@@H](C)CC(O)[C@]2(CCCN)C1O (stereo partly specified) | > 100 µM
* CC(C)=C/C(CC(O)(C(F)(F)F)C(F)(F)F)=N\O | > 100 µM
* COc1c(N2CCN(CN3C(=O)C(=Nc4ccc(S(=O)(=O)Nc5ncccn5)cc4)c4cc(Cl)ccc43)C(C)C2)c(F)cc2c(=O)c(C(=O)O)cn(C3CC3)c12 (stereo unspecified) | > 50 µM
* CO[P@@]1(=O)O[C@@H](c2ccccc2)[C@H](O)[C@]1(O)c1ccccc1 | > 100 µM

====

system: UACC-257 melanoma; assay: NCI tumour cell line growth inhibition, 48 h
Recorded measurements of GI50, one per entry
Reported Metric: GI50

* O=C(/C=C/C12c3ccccc3C(c3ccccc31)C1C(=O)NC(=O)C12)c1ccccc1 (centres undefined) | 1.61 µM
* C=C(C)[C@@H]1CC[C@]2(C(=O)NS(=O)(=O)c3ccccc3)CC[C@]3(C)[C@H](CC[C@@H]4[C@@]5(C)CC[C@H](OC(=O)NS(=O)(=O)c6ccccc6)C(C)(C)[C@@H]5CC[C@]43C)[C@@H]12 | 3.06 µM
* O=C1N=C(Nc2nc(-c3csc(NC4=NC(=O)/C(=C\c5ccccc5)S4)n3)cs2)S/C1=C/c1ccccc1 | 12.2 µM
* COc1cc(/C=C2\CCCC3=C2N=C2SC(C)=NN2C3c2cc(OC)c(OC)c(OC)c2)cc(OC)c1OC (centres undefined) | > 100 µM

====

Examples of molecules with documented TGI follow.
system: HOP-62 NSCLC; experiment: NCI tumour cell line growth inhibition, 48 h
Reported Metric: TGI

• CN1C2=Nc3n(c4ccccc4[n+]3C)CN2c2ccccc21 = > 100 µM
• CC(=O)Oc1ccc2c(c1)C(=O)c1nc(C)c(C)nc1C2=O = > 100 µM
• COc1cc2c(cc1OCc1ccccc1)NC(=O)[C@@H]1CCCN1C2=O = > 100 µM

====

test system: UACC-62 melanoma; assay: NCI tumour cell line growth inhibition, 48 h
Reported Metric: TGI

• CC1(C)OCC(C2OC(C)(C)OC2[C@H]2O[C@@]3(O)[C@H]4[C@H](C=CC[C@@H]42)[C@@H](OCc2ccccc2)[C@H](OCc2ccccc2)[C@H]3OCc2ccccc2)O1 (stereo partly drawn) = > 100 µM
• O=C(C(=C(I)I)c1ccccc1)c1ccccc1 = 53.4 µM
• CCCCNC(=O)Cn1c2ccc(Br)cc2c2nc3ccccc3nc21 = > 100 µM
• O=C1N=C(Nc2nc(-c3csc(NC4=NC(=O)/C(=C\c5ccccc5)S4)n3)cs2)S/C1=C/c1ccccc1 = 18.5 µM
• CC(C)=CCC[C@@H](C)C1=C(Nc2ccccc2F)C(O)=C(C)C(=O)C1=O = 22.6 µM
• CNC(=O)CN(CC(=O)O)C(=O)NC = > 100 µM
• COc1ccc(C2c3cc4c(cc3OC(Nc3ccccc3)C2C)OCO4)cc1 (stereo not drawn) = > 100 µM
• CCN(CC)CCCCNc1c2ccc(Cl)cc2nc2ccc(OC)cc12 = 3.47 µM
• C1=CCCC=CCC1.C[PH+](C)C.C[PH+](C)C.C[PH+](C)C.[Cl-].[Ir] = > 100 µM
• CNC(=S)N1CCN(C(C)=O)C1=S = > 100 µM
• CN(C)/N=N/c1nc2c(c(=O)n(C)c(=O)n2C)n1CC1CO1 (stereo not drawn) = 24.8 µM
• CC(C)(C)/C(O)=C\c1nc2cc(F)c(F)cc2[nH]c1=O = > 100 µM
• N#CC1=C(N)NC(=O)NC12Nc1ccccc1N2 = > 100 µM
• CCC1([N+](=O)[O-])CN(N=O)C1 = > 100 µM
• COC(C)C(O)(C(=O)OCC1=CCN2CCC(O)C12)C(C)(C)O (stereo not drawn) = > 100 µM
• CNC(=O)c1cncc(/C=C/c2ccccc2Cl)c1 = > 25 µM
• CC[PH+](CC)CC.[Cl][Au] = 2.63 µM
• COc1ccc(C(=O)/C=C/SC(=NC#N)SC)cc1 = 43.8 µM

====

test system: RPMI-8226 leukemia; assay: NCI tumour cell line growth inhibition, 48 h
A collection of compounds and their measured TGI
Reported Metric: TGI

* COc1cc2cnc3c4cc(OCc5ccccc5)ccc4ccc3c2cc1OC | 20.2 µM
* C=C1C(OC(C)=O)CC(OC(C)=O)C2(C)C(OC(C)=O)C(OC(C)=O)C3=C(C)C(OC(=O)/C=C/c4ccccc4)CC(C(OC(C)=O)C12)C3(C)C (centres undefined) | > 100 µM
* CC[C@H](NC(=O)OC(C)(C)C)C(=O)NCP(=O)(OCc1ccc([N+](=O)[O-])cc1)OCc1ccc([N+](=O)[O-])cc1 | > 100 µM
* CC1SC(c2ccc(Cl)cc2Cl)N(NC(=O)C(O)c2ccccc2)C1=O (centres undefined) | > 100 µM
* CC/C=N\N1C(N)=C(C#N)C(C#N)(C#N)C1CC (centres undefined) | > 100 µM
* NC(Cc1ccccc1)c1nccs1 (centres undefined) | > 100 µM
* C/C=C(\C)C(=O)OC1/C=C(\C)CC/C=C(\C)CC2OC(=O)C(C)(OC(C)=O)C12 (centres undefined) | > 100 µM
* N#Cc1cccc(C2C3=C(COC3=O)N(CCO)c3cc4c(cc32)OCO4)c1 (centres undefined) | > 50 µM
* COC(=O)N[C@H]1CCc2c(Cl)c(OC)c(OC)c(OC)c2-c2ccc(SC)c(=O)cc21 | > 42.8 µM
* CCN(CC)CCCCNc1c2ccc(Cl)cc2nc2ccc(OC)cc12 | 4.2 µM
* CO[C@@]1(c2ccccc2)O[C@H]2OCCC2[C@H]1c1ccc(Cl)cc1 (some centres undefined) | > 100 µM
* COc1cc(NCCCCCN=C(N)NC(N)=NC(C)C)c2ncccc2c1 | 20 µM
* CCCCNC(=O)Cn1c2ccc(Br)cc2c2nc3ccccc3nc21 | > 100 µM
* COc1ccc([C@]23CCC4(OCC(C)(C)CO4)[C@H]4CON(O[C@H](O[C@@H]5CCCCC5C(C)(C)c5ccccc5)C2)[C@@H]43)cc1OC (some centres undefined) | > 100 µM

====

tested on: OVCAR-3 ovarian; experiment: NCI tumour cell line growth inhibition, 48 h
TGI reference
Reported Metric: TGI

- CCCCN(CCCC)CC(C(C)=O)C(c1ccccc1)c1c(O)c2ccccc2oc1=O (stereo unspecified): > 100 µM
- CC(=O)Oc1ccc2c(c1)C(=O)c1nc(C)c(C)nc1C2=O: 59.1 µM
- CCOC(=O)C1=C(C)NC(c2ccco2)=C(C#N)C1c1cccc([N+](=O)[O-])c1 (stereo unspecified): 0.0373 µM
- O=C1NC(c2ccccc2)C2(C(=O)O)CN(C3CC3)c3cc(N4CCNCC4)c(F)cc3C2N1 (stereo unspecified): > 100 µM
- COC1(CC[C@H](C)COC2OC(CO)C(O)C(O)C2O)O[C@H]2C[C@H]3[C@@H]4CC=C5C[C@@H](OC6OC(CO)C(OC7OC(C)C(O)C(O)C7O)C(O)C6OC6OC(C)C(O)C(O)C6O)CC[C@]5(C)[C@H]4CC[C@]3(C)[C@H]2[C@@H]1C (stereo partly specified): 17.6 µM
- CCOC(=O)CN1C(=O)c2cc([N+](=O)[O-])cc3cc([N+](=O)[O-])cc(c23)C1=O: > 100 µM

====

# TGI annotations
test system: MDA-MB-231 breast; assay: NCI tumour cell line growth inhibition, 48 h
Reported Metric: TGI

• N#Cc1cccc(C2C3=C(COC3=O)N(CCO)c3cc4c(cc32)OCO4)c1 (stereo not drawn) = > 50 µM
• CCOC(=O)c1c(-c2ccccc2)c(OC)cn1C = > 10 µM
• CCOC(=O)c1csc(NC(=O)CCN2CCN(C)CC2)n1 = > 100 µM

====

system: SF-268 CNS; assay: NCI tumour cell line growth inhibition, 48 h
Quick reference: TGI of the listed items.
Reported Metric: TGI

• C[C@@H]1CC[C@@]2(NC1)O[C@H]1C[C@H]3[C@@H]4CC[C@H]5C[C@@H](O)CC[C@]5(C)[C@H]4CC[C@]3(C)[C@H]1[C@@H]2C = > 100 µM
• CO[P@@]1(=O)O[C@@H](c2ccccc2)[C@H](O)[C@]1(O)c1ccccc1 = > 100 µM
• N#Cc1cccc(C2C3=C(COC3=O)N(CCO)c3cc4c(cc32)OCO4)c1 (stereo not drawn) = > 50 µM

====

system: OVCAR-3 ovarian; assay: NCI tumour cell line growth inhibition, 48 h; in the data active means GI50 below about 0.43 µM; inactive means the rest
Possible outcomes: True = active, False = inactive

• COc1cc(/C=C2\CCCC3=C2N=C2SC(C)=NN2C3c2cc(OC)c(OC)c(OC)c2)cc(OC)c1OC (stereo unspecified) = False
• O=C(/C=C/C12c3ccccc3C(c3ccccc31)C1C(=O)NC(=O)C12)c1ccccc1 (stereo unspecified) = False
• COc1cc(NCCCCCN=C(N)NC(N)=NC(C)C)c2ncccc2c1 = True
• Cc1ccc(C(=O)NC2CC2)cc1-c1ccc2[nH]ncc2c1 = False
• CN(C)CCCNc1nc2ccccc2c2[nH]c3ccccc3c12 = False
• CCC1=C(CC2NCCc3ccccc32)CC2c3cc(OC)c(OC)cc3CCN2C1 (stereo unspecified) = False
